Tested on: T-47D breast
Assay: NCI tumour cell line growth inhibition, 48 h; in the data active means GI50 below about 0.43 µM; inactive means the rest
Classes used: t = active, f = inactive

compound	discrete label
CN(C)CCCn1c2c(c3cnccc3c1=O)C(=O)c1ccccc1-2	f
Cc1ccc(C(CN(C)C)C(=O)c2ccccc2)cc1 (centres undefined)	f
CC(C)(C)N1CCC1C(N)=O (centres undefined)	f
COc1ccc(-c2cc(-c3ccc(OC)c(OC)c3)nc(SCCCC(=O)NO)n2)cc1	f
COc1ccc(/C=C/C(=O)c2cc3c(N)c(C(=O)Nc4ccccc4Cl)sc3nc2C)cc1	f
Cc1ccc2c(c1)nc(C(=O)c1ccco1)c(C(F)(F)F)[n+]2[O-]	f
NC(=O)c1cnc(N[C@@H]2CCCC[C@@H]2N)nc1Nc1cccc(-n2nccn2)c1	f
N[C@@H](Cc1c[nH]c2ccccc12)C(=O)NC1CCN(C(=O)c2c[nH]c3ccccc23)CC1	f
C(=N\Nc1ccccn1)/c1ccccn1	t
